Can you tell me total protein half-life in vivo for the items I'm about to list?
Assay: total protein half-life in vivo (active degradation + dilution); higher = more stable protein
Settings: E. coli NCM3722 delta-clpP; growth: N-lim chemostat; doubling time 6 h

// total protein half-life in vivo lookup, sequence = `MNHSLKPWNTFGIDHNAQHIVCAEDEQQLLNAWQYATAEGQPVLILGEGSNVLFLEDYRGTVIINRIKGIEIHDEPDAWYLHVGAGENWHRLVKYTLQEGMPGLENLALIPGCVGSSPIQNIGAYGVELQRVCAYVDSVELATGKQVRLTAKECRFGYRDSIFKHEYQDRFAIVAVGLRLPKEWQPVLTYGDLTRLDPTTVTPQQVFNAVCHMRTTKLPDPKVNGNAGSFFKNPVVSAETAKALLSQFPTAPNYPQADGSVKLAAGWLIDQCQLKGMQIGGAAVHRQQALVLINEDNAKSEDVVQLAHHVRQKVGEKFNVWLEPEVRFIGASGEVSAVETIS` , result: 3.45 h

// total protein half-life in vivo lookup, sequence = `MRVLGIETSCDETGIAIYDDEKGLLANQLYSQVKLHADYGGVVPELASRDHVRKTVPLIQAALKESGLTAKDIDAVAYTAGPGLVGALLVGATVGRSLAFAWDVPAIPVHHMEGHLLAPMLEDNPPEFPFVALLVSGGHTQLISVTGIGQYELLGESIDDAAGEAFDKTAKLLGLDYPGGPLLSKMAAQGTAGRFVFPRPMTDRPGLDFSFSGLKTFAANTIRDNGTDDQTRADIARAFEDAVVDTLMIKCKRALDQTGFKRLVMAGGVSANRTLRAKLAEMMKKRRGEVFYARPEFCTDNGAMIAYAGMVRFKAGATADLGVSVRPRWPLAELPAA` , result: 3 h

---

Test: total protein half-life in vivo (active degradation + dilution); higher = more stable protein
Conditions: wild type E. coli NCM3722; growth: C-lim chemostat; doubling time 3 h
Can you tell me total protein half-life in vivo for the items I'm about to list?

// total protein half-life in vivo lookup, sequence = `MINYGVVGVGYFGAELARFMNMHDNAKITCVYDPENGENIARELQCINMSSLDALVSSKLVDCVIVATPNYLHKEPVIKAAKNKKHVFCEKPIALSYEDCVDMVKACKEAGVTFMAGHIMNFFNGVQYARKLIKEGVIGEILSCHTKRNGWENKQERLSWKKMKEQSGGHLYHHIHELDCVQHLLGEIPETVTMIGGNLAHSGPGFGNEDDMLFMTLEFPSGKLATLEWGSAFNWPEHYVIINGTKGSIKIDMQETAGSLRIGGQTKHFLVHETQEEDDDRRKGNMTSEMDGAIAYGHPGKKTPLWLASLIRKETLFLHNILCGAKPEEDYIDLLNGEAAMSAIATADAATLSRSQDRKVKISEIIKHTSVM` , result: 2.75 h

// total protein half-life in vivo lookup, sequence = `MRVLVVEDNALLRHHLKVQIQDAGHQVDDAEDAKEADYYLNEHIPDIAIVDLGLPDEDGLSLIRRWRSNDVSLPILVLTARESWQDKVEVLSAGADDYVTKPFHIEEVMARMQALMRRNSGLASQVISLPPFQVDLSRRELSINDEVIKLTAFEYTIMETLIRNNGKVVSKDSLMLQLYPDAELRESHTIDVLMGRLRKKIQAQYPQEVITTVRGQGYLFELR` , result: 2.85 h

// total protein half-life in vivo lookup, sequence = MQWQTKLPLIAILRGITPDEALAHVGAVIDAGFDAVEIPLNSPQWEQSIPAIVDAYGDKALIGAGTVLKPEQVDALARMGCQLIVTPNIHSEVIRRAVGYGMTVCPGCATATEAFTALEAGAQALKIFPSSAFGPQYIKALKAVLPSDIAVFAVGGVTPENLAQWIDAGCAGAGLGSDLYRAGQSVERTAQQAAAFVKAYREAVQ [Q6BF16] , result: 2.04 h
